# PROCEDURE_SUMMARY: yeast display, Sf9 membrane polyspecificity reagent, FACS + sequencing; frameworks hold sequencing errors
ASSAY_METRIC: polyreactivity (PSR sort gate)

INPUT_SEQUENCE	ASSAY_METRIC	RECORDED_MEASUREMENT
QVQLVESGGGLVQAGGSLRLSCAASGRIFGVYTMGWYRQAPGKERELVAVISRRGGRTYYADSVKGRFTISRDNAKNTVYLQMNSLKPEDTAVYYCARDSTYSSYTSNDYWGQGTQVTVSS	polyreactivity (PSR sort gate)	high polyreactivity
QVQLVESGGGLVQAGGSLRLSCAASGRTFRNYAMGWYRPAPGKERELDAGITDSGGSTFYADSVKGRFTISRDNAKNTVYLQMNSLKPADTAVYYCAAVYVPYYWLGRSRGLDYWGQGTQVTVSS	polyreactivity (PSR sort gate)	high polyreactivity
QVQLVESGRGLVQAGGSLRLSCAASGFIFDYNTMGWYRQAPGKERELVAGITSGGSTYYADSVKGRFTISRDNEKNTFYLQMNSLKPDDTAVYYCATDDDEYYGYDYWGQGTQVTVST	polyreactivity (PSR sort gate)	low polyreactivity
QVQLVESGGGLVQAVGSLRLSCAASGRTFNLYAMGWYRQAPGKERELVAAITRRGGRTYYADSVKGRFTISRDNAKNTVYLQMNSLKPEDTAVYYCAARGYYGKFSGSGYWGQGTQVTVSS	polyreactivity (PSR sort gate)	high polyreactivity
QVHRVESGGGLVQAGGSLRLSCDASGNIFYDYAMGWYRQGPGKERELVAAIDLSDGSTYYSDSVKGRFTISRDNAKNTVYFQMNSLKPDDTAVYYCAADIIAAWTSDYYYWGQGSQVTVSS	polyreactivity (PSR sort gate)	high polyreactivity
QVQLVESGGGLVQAGGSLRSSCAASGGTFYGYAMGWYRQAPGKERELVAAISFSGGRTYYADSVKGSFTISRDNAKNTVYLQMNSLKPEDTAVYYCAALRRYPRPNIYGYWGQGTQVTVSS	polyreactivity (PSR sort gate)	low polyreactivity
QVQLVESGGGLVQAGGSLRLSCAASGIIFRYAMGWYRQAPGKERELVARITVGSTYYADSVKGRFTISRDNAKNTVYLQMNSLKPEDTAVYYCAARVQHYLATDDYWGQGTQVTVSS	polyreactivity (PSR sort gate)	low polyreactivity
QVQLVESGGGLVQAGGSLRLSCAASGSTFFRYDMGWYRQAPGKERELVADINYNGGSTYYADSVKGRFTISRDNAKNTVYLQMNSLKPEDTAVYYCAAAYRVRGRTYDSWGQGTQVTVSS	polyreactivity (PSR sort gate)	high polyreactivity
QDQLVESWGGLVQAVGSLRLSCAASGSTFEDYGMGWNRQAPGKERQFVAAIRYSGSSKYADSVKGRFTISRDNAKNTVFLLMKSLIPEDTAVYYCAKYGVRVGFGYSSEYFGQGTQVTVSS	polyreactivity (PSR sort gate)	low polyreactivity
QVQLVESGGGLVQAGGSLRLICAASGRTFSSNAMGWYRPAPGNERELVAAISTSGGRTYYADSVKGRCTISRDNAKNTVYLQMNSLKPEDTAVYYGAAEYVGTGTPDDYAYWGQGTQVTVSS	polyreactivity (PSR sort gate)	high polyreactivity
QVQLVESGGGLVQAGGSLRLSCAASGRTFRSNAMGWNIQAPGKERELVAAITRGRRTYYADSVKGRFTISRDNAKNTVYLQMNSMKPEDTAVYYCAGVGRYACRLDYWGQGTQVTVSS	polyreactivity (PSR sort gate)	high polyreactivity

====

# PROCEDURE_SUMMARY: yeast display, Sf9 membrane polyspecificity reagent, FACS + sequencing; frameworks hold sequencing errors

INPUT_SEQUENCE	polyreactivity (PSR sort gate)
QVKLVESGGGLVQAGGSLRLSCAASGIIFYDYAMGWYRQAPGKERELVAAISSGGDTYYADSVKGRFTISRDNAKNTVYLQMNSLKPEVTAVYYCAAYPPFIYSDPSIWYDYWGQGSQVTVSS	low polyreactivity
QVQHVESGGGLVQAGGSLRLSCAASGIIFYDYTMGWYRQAPGKERELVAVITNGDTTYYADSVKGRFTISRDNAKNTVYLQMNSLKPEDTAVYYCAADKRPPYILDYWGQGTQVTVSS	high polyreactivity
QVQLVESGGGLVQAGGSLRLSCAASASIFYRYAMGWYRQAPGKERELVAAITRSGARTYYADSVKGRFTISRDNAKNTVYLQMNSLKPEDNAVYYCAADDPGYYQVEYWGQGTQVTVSS	high polyreactivity
QVQLVETGGGLVQAGGSLRLSCAASGSIFRDNAMGWYRQAPGKESELVAAINVRDGDTFYADSVKGRFTISRDNAKNTVYLQMNSLKPEDTAVYYCAVAGATSYFAYDSWGQGTQVTVSS	low polyreactivity
QVQLVESGGGLVQAGGSLRLSCAASGSIFGGYGMGWYRQAPGKERELVAAITSGSSTYYADSVKGRFTISRDNAKNTVYLQMNSLKPEDTAVYNCAARPYPHSAYEGDYWGRGTQVTVSS	low polyreactivity
QVQLVESGGGLAQAGGSLRLSCAASGSTFNSNAMGWSRQAPGKERELVAAISRSGGRTYYADSVKGRFTISRDIAKNTVYLQMNSLKPEDTAVYYCAAGCQYISRRGYDYWGQGTQVTVSS	high polyreactivity
QVQLLESGGGLVQAGGSIRLTCAASGRIFYGNTMGWYRQAPGQETELVAAITIGDSTNYADSVKGRFTISRDNAKYTVYLQMNSLKPEDTAVFYCGKRNWWGYYKYDYWGQGSQVTVSS	low polyreactivity
QVQLVESGGGLVQAGGSLRLSCAASGFTLSASAMGWYRQAPGKERELVAGITYTGGRTYYADSVKGRFTISRDNAKNTVYFQMNSLKPEVTAVYYCNKAWSGYYKYGYWGQGTQVSVSS	low polyreactivity
QVQLVESGGGLVQAGGSLRLSCAASGFIFGYYAMGWYIPAPGKERELVAAISGSGGSTYYADSVKGRFTISRDNAKNTVYLQMNSLKPEDTAVYYCAAYGRAPGTSQRYDYRGQGTQVTVSS	high polyreactivity
QVQLVESGGGLVQAGGSLRLSCAASGSIFVGYTMGWYRQAPGKERELVAAITSTGGSTSYADSVKGRFTISRDNAKNTVYLQMNSLKPEDTAVYYCAARGRGKTTSVAYYYWGQGTQVTVSS	high polyreactivity
QVQLVESGGGLVQAGGSLRLSCAASGSTFYANAMGWYRQAPGKERELVAAISSRGGSTSYADSVKGRFTISRDNAKNTVYLQMNSLKPEDTAVYYCNKVTRYYYRGFDYWGQGTQVTVSS	high polyreactivity

====

# PROCEDURE_SUMMARY: yeast display, Sf9 membrane polyspecificity reagent, FACS + sequencing; frameworks hold sequencing errors
ASSAY_METRIC: polyreactivity (PSR sort gate)

> print(dat)
                             input.sequence                    assay.metric  recorded.measurement
1  QLQLQESGGGLVQAGGSLRLSCAASALITKVYSMGWYRQAPGKERELVAVINSNGGSTYYADSVKGRFTISRDNAQNTVYLQMNSLKPEDTAVYYCRYFRPYGYNYWGQGTQVTVSS  polyreactivity (PSR sort gate)   high polyreactivity
2  QVQLQDSGGGLVQAGGSLRLSCAASGTIFWYSDLGWYRQAPGKERKFVAGIGFGSNSNFADSVRGRFTISRDNAKNTVYLQMNSLKPEDTAVYYCAAVWFDYSTHRYWGQGTQVTVSS  polyreactivity (PSR sort gate)   high polyreactivity

====

# PROCEDURE_SUMMARY: yeast display, Sf9 membrane polyspecificity reagent, FACS + sequencing; frameworks hold sequencing errors

INPUT_SEQUENCE	polyreactivity (PSR sort gate)
QVQLVESGGGLVQAGGSLRLSCAASGRIFYRNAMGGSRQAPGKERELVAAISYSGGSTYYADSVKGRFTISRDNAKNTVYLQMNSLKPEDTAVYYCAAARDRWGNYWGQGTQVTVSS	high polyreactivity
QVQLVESGGCLVQAGGSLRLSCAASGRTSTGYSMGWYRQAPGKERELVAGIDKIGGRTYYADSVKGRFTISRDNAKNTVYLQMNSLKPEDTAVYYCAVKTSPRRYYWGQGTQVTVSS	high polyreactivity
QVQLVESGGGLVQAGGSLRLSCAASGFTFLYYDMGWYRQAPGKERELVAAITNDDSTYYADSVKGRFTISRDNAKNTVYLQMNSLKPEDTAVYYCNADVWYYTPYDYWGQVTQVTVSS	high polyreactivity
QVQLVESGGGLVQAGGSLRLSCAASGNIFSDYAMGWYRQAPGKERELVAAISSGGNTNYADSVKRRFSISRDNAKNTVYLEMNSLKPEDTAVYYCAAVYNTTYTLLPEYSDVKYYYWGQGTQVTVSS	low polyreactivity
QVQLVESGGGLVQAGGSLRISCAASGFTFNANAMGWYRQAPGNERELVAAISLSGGRTYYADSVKGRFTISRDNAKNTVYLQMNSLKPEDTAVYYCAASPDGSFRRFSRVVSGDYWGQGTQVTVSS	high polyreactivity
QVQLVESGGALVQAGGSLRLSCAASGSTFYWNTMGWYRQAPGKERELVASITRGGSTYYADSVKGRFTISRDNAKNTVYLQMNSLKPEDSAVYYCNVLAWSYGYRYYSWGQGTQVTVSS	high polyreactivity
QVQLVESGGGLVQAGCSLRLIFAASGSIFIGYAMGWYRQAPGKERELVATITNGGSTYYADSVKGRFTISRDNAKNTVYLQMNSLKPEDSAVYYCNKPTYQWGQGTQVTVSS	high polyreactivity
QVQLVESGGGLVQAGGSLRLSCAASGSIFYHYAMGWYRQAPGKVRELFAAISGSGGSTYYADSVKGRFTISRDNAKNTVYLQMNSLKPEDSAVYYCAADTSRYHYTRYFFDSDYWGQGTQVTVSS	low polyreactivity
QVQLVESGGGLVQAGGSLRLSCAASGITFGRNTMGWYRQAPGKESELVAAIDSGGNTYADSVKGRFTISRDNAKNTVYLQMNSLKPEDTAVYYCAADNSVGEYQRVDYDYWGQGTQVTVSS	low polyreactivity
QVQLVESGGGLVQAGGSLRLSCAASGRTFARYAMGWYRQAPGKERELVARISSGGSTYYADSVKGRFTISRDNAKNTVYLQMNSLKPEDTAVYYCAASGWRYRYDYWGQGTQVTVSS	high polyreactivity
QVQLVESGGGLVQAGGSLRLSCAASGIIFPYYAMGWYRQAPGKERELVAAIDWSGTSTYYADSVKGRFTISRDNAKNTVYLQMNSLKPEDTAVYYCAADYPQAGLLYYYWGQGTQVTVSS	low polyreactivity

These data points were gathered from the nanobody polyreactivity screen of Harvey et al. (2022).
